experiment: Solid form stability under stressed conditions (wet, dry, high humidity) by XRPD
Format: physicochemical
study.conditions: high humidity (RH >95%)

- compound: "N=C(N)NCCC(=O)O.O=C(O)C[C@H](O)C(=O)O [β-GPA malate (1:1)]"
  Humid_XRPD pattern: "Deliquesce"
- compound: "CS(=O)(=O)O.N=C(N)NCCC(=O)O [β-GPA methanesulfonate]"
  Humid_XRPD pattern: "Deliquesce"
- compound: "Cl.NC(N)=NCCC(=O)O [β-GPA hydrochloride]"
  Humid_XRPD pattern: "Deliquesce"
- compound: "N=C(N)NCCC(=O)O.O=P(O)(O)O [β-GPA phosphate]"
  Humid_XRPD pattern: "Deliquesce"

---

experiment: Flowability measurement using Hanson Flodex unit
Assay type: physicochemical
study.conditions: summary of density and Flodex measurements
parameter: flow character from the experimental data

- compound: "N=C(N)NCCC(=O)O [β-GPA, β-Guanidinopropionic acid, reference compound]"
  assay.value: "poor"
- compound: "N=C(N)NCCC(=O)O.O=C(O)C(=O)O [β-GPA oxalate (1:1)]"
  assay.value: "fair"
- compound: "N=C(N)NCCC(=O)O.N=C(N)NCCC(=O)O.O=C(O)CCC(=O)O [β-GPA succinate (2:1)]"
  assay.value: "good"

---

experiment: Bulk and tapped density
Format: physicochemical
parameter: Bulk density (g/cc)
One number for each entry, in g/cc.

Known Bulk density results, listed for orientation:
- compound: "N=C(N)NCCC(=O)O [β-GPA, β-Guanidinopropionic acid, reference compound]"
  unit.name: "g/cc"
  assay.value: 0.389
- compound: "N=C(N)NCCC(=O)O.N=C(N)NCCC(=O)O.O=C(O)CCC(=O)O [β-GPA succinate (2:1)]"
  unit.name: "g/cc"
  assay.value: 0.405
- compound: "N=C(N)NCCC(=O)O.O=C(O)C(=O)O [β-GPA oxalate (1:1)]"
  unit.name: "g/cc"
  assay.value: 0.505

Tell me the measured Bulk density of N=C(N)NCCC(=O)O.N=C(N)NCCC(=O)O.O=C(O)/C=C/C(=O)O [β-GPA fumarate (2:1)] , please. 0.576

---

experiment: Solid form stability under stressed conditions (wet, dry, high humidity) by XRPD
Assay type: physicochemical
study.conditions: high humidity conditions
Description: The solid form stability of each salt was studied by XRPD under stressed conditions: wet, dry (45° C. under vacuum) and high humidity (RH >95%).
parameter: stability under high humidity conditions

Known stability under high humidity conditions results, listed for orientation:
- compound: "CCS(=O)(=O)O.N=C(N)NCCC(=O)O [ethanesulfonic acid salt]"
  assay.value: "deliquesced"
- compound: "N=C(N)NCCC(=O)O.N=C(N)NCCC(=O)O.O=C(O)CCC(=O)O [β-GPA succinate (2:1)]"
  assay.value: "stable"
- compound: "N=C(N)NCCC(=O)O.O=C(O)/C=C\\C(=O)O [β-GPA maleate (1:1) Form I]"
  assay.value: "stable"
- compound: "N=C(N)NCCC(=O)O.O=C(O)C(=O)O [β-GPA oxalate (1:1)]"
  assay.value: "stable"
- compound: "N=C(N)NCCC(=O)O.O=P(O)(O)O [β-GPA phosphate]"
  assay.value: "deliquesced"

Give stability under high humidity conditions for each of the items listed below.
1. CS(=O)(=O)O.N=C(N)NCCC(=O)O [β-GPA methanesulfonate]
2. N=C(N)NCCC(=O)O.O=C(O)/C=C/C(=O)O [β-GPA fumarate (1:1)]
3. Cl.NC(N)=NCCC(=O)O [β-GPA hydrochloride]

["deliquesced", "stable", "deliquesced"]

Tell me the measured stability under high humidity conditions of N=C(N)NCCC(=O)O.O=C(O)C[C@H](O)C(=O)O [β-GPA malate (1:1)] , please. deliquesced

The measured values listed here are drawn from patent US9884813B1.
